Tested on: MDA-N
Assay: NCI tumour cell line growth inhibition, 48 h
The source made the active and inactive calls. Cut-off read from the data, not from the text of the source: active = GI50 up to about 1.1 µM and inactive = higher.
Please answer using one outcome listed in active, inactive

molecule	target-system	class
COC(=O)c1cc2c(c(C(=O)OC)c1)CCC2	MDA-N	inactive

Query block: In this assay, the call recorded for `CC(C)NCCCNc1c2ccccc2nc2cccc([N+](=O)[O-])c12` was what?
Result block: active

Query block: In this assay, the call recorded for C=CCC1(OC(C)=O)C2OC(=O)C1(O)OCC2O (stereo not given) was what?
Result block: inactive

----------
Tested on: SW-620
Experiment: NCI tumour cell line growth inhibition, 48 h
The source made the active and inactive calls. Cut-off read from the data, not from the text of the source: active = GI50 up to about 1.1 µM and inactive = higher.
Please answer using one outcome listed in YES for active, NO for inactive

Below, 6 molecules whose answers are already recorded.
molecule	class
C=C(Cl)[C@@](Cl)(CBr)CC[C@@H](Br)C(C)(C)Cl	YES
CCC1=C(C)/C(=C/c2[nH]c(CBr)c(CC)c2C)N=C1CBr	NO
CCOC(=O)N1c2c(c3ccccc3n2C(=O)OCC)C(=O)C(OC)N1C(=O)OCC (stereo not given)	NO
CC(SC(=S)N1CCOCC1)C(=O)Nc1nnc(-c2ccccc2)o1 (stereo not given)	NO
COC(=O)C(Cc1c[nH]c2ccccc12)NC(=O)C(Cc1c[nH]cn1)NC(=O)C1CCC(=O)N1C(=O)OCc1ccccc1 (stereo not given)	NO
C/C(=N\NS(=O)(=O)c1ccc(C)cc1)c1c(O)cc(C)oc1=O	NO

Query block: In this assay, the call recorded for CCOc1ccc(NCC2CC/C(=C\c3ccc(O)cc3)C2=O)cc1 (stereo not given) was what?
Result block: NO

Query block: In this assay, the call recorded for `O=C(Nc1ccccc1-c1nn(CN2CCNCC2)c(=S)n(CN2CCNCC2)c1=O)C(F)(F)F` was what?
Result block: NO

Query block: In this assay, the call recorded for `O=c1c(-c2nc3ccccc3c3ccccc3c2=O)nc2ccccc2c2ccccc12` was what?
Result block: NO

Query block: In this assay, the call recorded for COc1ccc(OC2OC(CO)C(OCc3ccccc3)C(OCc3ccccc3)C2OCc2ccccc2)cc1 (stereo not given) was what?
Result block: NO

Query block: In this assay, the call recorded for `NC(=O)N/N=C/C(=C/Nc1ccccc1)[N+](=O)[O-]` was what?
Result block: NO

Query block: In this assay, the call recorded for `Oc1cccc(-c2cn3cc(Cl)ccc3n2)c1` was what?
Result block: NO

Query block: In this assay, the call recorded for Cc1cccc2c1C(=O)C(C1OC(=O)c3ccccc31)C2 (stereo not given) was what?
Result block: NO

Query block: In this assay, the call recorded for CC(C)(C)C1CCC(O)(c2ccccc2)CC1 (stereo not given) was what?
Result block: NO

Query block: In this assay, the call recorded for CSc1nc(Cl)c2c(n1)Sc1nc3ccccc3n1C2O (stereo not given) was what?
Result block: NO

----------
System: NCI-H522
Assay: NCI tumour cell line growth inhibition, 48 h
Active and inactive are the calls of the source. Cut-off read from the data, not from the text of the source: active = GI50 up to about 1.1 µM and inactive = higher.
Please answer using one outcome listed in active, inactive

Below, 3 compounds whose answers are already recorded.
compound	class
Oc1cccc(-c2cn3cc(Cl)ccc3n2)c1	inactive
Cc1c2cccc(Sc3ccccc3)c2c2c3c(cccc13)[S+](c1ccccc1)C2 (stereo unspecified)	active
N#Cc1c(/C=C/c2ccccc2)c2c([nH]c1=S)CCCCC2	inactive

Query block: In this assay, the call recorded for COc1cc([C@@H]2c3cc4c(cc3[C@@H](NCc3cccc(F)c3)C3COC(=O)[C@@H]32)OCO4)cc(OC)c1O (stereo partly specified) was what?
Result block: inactive

Query block: In this assay, the call recorded for Cc1ccc2c(c1)-c1c3c(nn1-c1ccccc1)-c1ccccc1SC3O2 (stereo unspecified) was what?
Result block: inactive

Query block: In this assay, the call recorded for `Cc1cc(C)c(-c2noc(-c3ccc(Cl)cc3)c2C2=NCCN2)c(C)c1` was what?
Result block: inactive

The measured values listed here are drawn from ChEMBL document CHEMBL1201862.
